These data points were gathered from the supplement of paper PMC11061612.

# Tested on: KARPAS-45 (T-Lymphoblastic Leukemia)
# assay details: combination Emax (second highest fraction inhibited in the dose matrix, 72 h); higher = more inhibition; extreme values may be limits of the assay
metric: combination Emax

1) Cc1c2c(nn1C)CSCc1cc(n(C)n1)CSc1cc(c3ccccc3c1)OCCCc1c(C(=O)O)n(C)c3c-2c(Cl)ccc13 [AZD5991] + CN(C)CCCOc1ccc(-c2ccc3ncc4c(c3c2)n(C2CCOCC2)c(=O)n4C)cn1 [AZD0156] (first compound max 1 µM, 7x7, partner max 1 µM) :: 0.913
2) CCN(CCO)CCCOc1ccc2c(Nc3cc(CC(=O)Nc4cccc(F)c4)[nH]n3)ncnc2c1 [AZD2811] + C=CCn1c(=O)c2cnc(Nc3ccc(N4CCN(C)CC4)cc3)nc2n1-c1cccc(C(C)(C)O)n1 [AZD1775] (first compound max 1 µM, partner max 1 µM) :: 0.936
3) CC(=O)c1c(C)c2cnc(Nc3ccc(N4CCNCC4)cn3)nc2n(C2CCCC2)c1=O [Palbociclib] + Cn1cnc2c(F)c(Nc3ccc(Br)cc3Cl)c(C(=O)NOCCO)cc21 [Selumetinib] (first compound max 10 µM, 7x7, partner max 10 µM) :: 0.964
4) COc1nnc2ccc(N3CCC(c4ccc(OCCN5CCN(C)C(=O)[C@H]5C)cc4)CC3)nn12 [AZD5153] + CCN(CCO)CCCOc1ccc2c(Nc3cc(CC(=O)Nc4cccc(F)c4)[nH]n3)ncnc2c1 [AZD2811] (first compound max 1 µM, 7x7, partner max 1 µM) :: 1
5) CC1(C)CCC(CN2CCN(c3ccc(C(=O)NS(=O)(=O)c4ccc(NCC5CCOCC5)c([N+](=O)[O-])c4)c(Oc4cnc5[nH]ccc5c4)c3)CC2)=C(c2ccc(Cl)cc2)C1 [Venetoclax] + Cn1cnc2c(F)c(Nc3ccc(Br)cc3Cl)c(C(=O)NOCCO)cc21 [Selumetinib] (first compound max 1 µM, 7x7, partner max 3 µM) :: 0.317
6) Cn1cnc2c(F)c(Nc3ccc(Br)cc3Cl)c(C(=O)NOCCO)cc21 [Selumetinib] + CC(C)n1c(=O)n(C)c2cnc3cc(F)c(-c4ccc(OCCCN5CCCCC5)nc4)cc3c21 [AZD1390] (first compound max 10 µM, 7x7, partner max 0.3 µM) :: 0.0319
7) COc1cc2c(cc1OCCCCCOc1cc3c(cc1OC)C(=O)N1C=C(C)C[C@H]1C=N3)N=C[C@@H]1CC(C)=CN1C2=O [SG3199] + O=C(c1cc(Cc2n[nH]c(=O)c3ccccc23)ccc1F)N1CCN(C(=O)C2CC2)CC1 [Olaparib] (first compound max 0.001 µM, 7x7, partner max 10 µM) :: 0.0966
8) Cc1c2c(nn1C)CSCc1cc(n(C)n1)CSc1cc(c3ccccc3c1)OCCCc1c(C(=O)O)n(C)c3c-2c(Cl)ccc13 [AZD5991] + CC1(C)CCC(CN2CCN(c3ccc(C(=O)NS(=O)(=O)c4ccc(NCC5CCOCC5)c([N+](=O)[O-])c4)c(Oc4cnc5[nH]ccc5c4)c3)CC2)=C(c2ccc(Cl)cc2)C1 [Venetoclax] (first compound max 1 µM, 7x7, partner max 1 µM) :: 1
9) COc1cccc(OCCCN)c1-c1cc(Nc2cnc(C#N)cn2)n[nH]1 [Prexasertib] + CCc1c2c(nc3ccc(O)cc13)-c1cc3c(c(=O)n1C2)COC(=O)[C@]3(O)CC [SN-38] (first compound max 1 µM, 7x7, partner max 0.3 µM) :: 1
10) COc1nnc2ccc(N3CCC(c4ccc(OCCN5CCN(C)C(=O)[C@H]5C)cc4)CC3)nn12 [AZD5153] + Cn1cnc2c(F)c(Nc3ccc(Br)cc3Cl)c(C(=O)NOCCO)cc21 [Selumetinib] (first compound max 1 µM, 7x7, partner max 10 µM) :: 1
11) COc1cccc(OCCCN)c1-c1cc(Nc2cnc(C#N)cn2)n[nH]1 [Prexasertib] + C[C@@H]1COCCN1C2=NC(=NC(=C2)C3(CC3)[S@](=N)(=O)C)C4=C5C=CNC5=NC=C4 [AZD6738] (first compound max 1 µM, 7x7, partner max 10 µM) :: 0.979
12) CC1(C)CCC(CN2CCN(c3ccc(C(=O)NS(=O)(=O)c4ccc(NCC5CCOCC5)c([N+](=O)[O-])c4)c(Oc4cnc5[nH]ccc5c4)c3)CC2)=C(c2ccc(Cl)cc2)C1 [Venetoclax] + C[C@@H](Nc1cc(F)cc(F)c1)c1cc(C(=O)N(C)C)cc2c(=O)cc(N3CCOCC3)oc12 [AZD8186] (first compound max 1 µM, 7x7, partner max 3 µM) :: 0.833
13) CC(=O)Nc1cccc(-n2c(=O)n(C3CC3)c(=O)c3c(Nc4ccc(I)cc4F)n(C)c(=O)c(C)c32)c1 [Trametinib] + Cc1nc(-c2cn3c(n2)-c2ccc(-c4cnn(C(C)(C)C(N)=O)c4)cc2OCC3)n(C(C)C)n1 [Taselisib] (first compound max 1 µM, 7x7, partner max 10 µM) :: 0.755
